Tested on: MS2 coat protein
Experiment: apparent KD of MS2 coat protein; designed switch direction (-1 OFF switch, 1 ON switch): -1; higher = weaker reporter binding
Conditions: input ligand: none
apparent KD of MS2 coat protein reference
The response must be a number in µM with no trailing unit.

AGCUAGUGCCGAGGAUAUACAUGAGGAUCACCCAUGUAGGCGUGAGGCUUUGUCUCACGCGAGAUGUAGAAGGCGGCGUUGGCA [JL ENG2 1.52] (Eterna round: R96, puzzle: Exclusion NG 2) ... 0.0217
GUGUUUUAUGUAGGAUAUGCAUACUGUUAGUAUGCAGAAGGACAUGAGGAUCACCCAUGUAUAUUAUUAUUAUAUAUCAUACAU [MOD2 of Hoglahoo's Title] (Eterna round: R96, puzzle: Exclusion NG 1) ... 0.0189
UUUUAACAAGCGAGAUCCUACAUGAGGAUCACCCAUGUAGACCAUGGUUUCCAUGGUCUUUUUGCUCGUCUUGUGUG [jl TITIN mod 6] (Eterna round: R97, puzzle: Sensor, turn-off variant 1) ... 0.0233
UGAGCUACAGGAUAUACAAGGCGACCGUGAGGUCGAAGGUUACAUGAGGAUCACCCAUGUAGAAGGGUAGUUCU [Mat - Exclusion 2 - JL Mod - D15] (Eterna round: R97, puzzle: Exclusion 2) ... 0.126
UUAAUUAGCUCGCUAGAUCCUCACAUGAGGAUCACCCAUGUGCAGGAUAUCAGCUCGUGUAGAGCUGAGAAGGGCACUGCGAGC [ExNG3/10-A3] (Eterna round: R96, puzzle: Exclusion NG 3) ... 0.108
UGUAAGCUAGGAUAUGCUUUGGGAAAGCAUUCCUUCGAUAAACUUGAGGAUCACCCAAGUAGAAGGAGCUUACU [salish99_ex2_r4_006] (Eterna round: R97, puzzle: Exclusion 2) ... 0.0115
UACUUAUGAGUCAGGAUAUGUGAGGCGGAAGCGAUACAGAAGGGACAUGAGGAUCACCCAUGUUGGGUUCCUGU [Eternabot (Original) Solution 32] (Eterna round: R97, puzzle: Brourd's mod of Exclusion 4) ... 0.0835

Next sequence, please.
Request: # returns recorded apparent KD of MS2 coat protein (system: MS2 coat protein) for AGCGCCAUCGUGAGAUGGCGUAUUACAUGAGGAUCACCCAUGUAGGAUAUCGAUUGCUUUGCAGUCGAGAAGGACAUGUUCUAG [JL ENG3 3.80 Mod A] (Eterna round: R96, puzzle: Exclusion NG 3)
Result: 0.0606
